TARGET_ENTITY: human Nav1.7 (hNav1.7) (Homo sapiens, UniProt Q15858)
Construct: expressed in transfected cells
Sequence (Q15858 whole entry): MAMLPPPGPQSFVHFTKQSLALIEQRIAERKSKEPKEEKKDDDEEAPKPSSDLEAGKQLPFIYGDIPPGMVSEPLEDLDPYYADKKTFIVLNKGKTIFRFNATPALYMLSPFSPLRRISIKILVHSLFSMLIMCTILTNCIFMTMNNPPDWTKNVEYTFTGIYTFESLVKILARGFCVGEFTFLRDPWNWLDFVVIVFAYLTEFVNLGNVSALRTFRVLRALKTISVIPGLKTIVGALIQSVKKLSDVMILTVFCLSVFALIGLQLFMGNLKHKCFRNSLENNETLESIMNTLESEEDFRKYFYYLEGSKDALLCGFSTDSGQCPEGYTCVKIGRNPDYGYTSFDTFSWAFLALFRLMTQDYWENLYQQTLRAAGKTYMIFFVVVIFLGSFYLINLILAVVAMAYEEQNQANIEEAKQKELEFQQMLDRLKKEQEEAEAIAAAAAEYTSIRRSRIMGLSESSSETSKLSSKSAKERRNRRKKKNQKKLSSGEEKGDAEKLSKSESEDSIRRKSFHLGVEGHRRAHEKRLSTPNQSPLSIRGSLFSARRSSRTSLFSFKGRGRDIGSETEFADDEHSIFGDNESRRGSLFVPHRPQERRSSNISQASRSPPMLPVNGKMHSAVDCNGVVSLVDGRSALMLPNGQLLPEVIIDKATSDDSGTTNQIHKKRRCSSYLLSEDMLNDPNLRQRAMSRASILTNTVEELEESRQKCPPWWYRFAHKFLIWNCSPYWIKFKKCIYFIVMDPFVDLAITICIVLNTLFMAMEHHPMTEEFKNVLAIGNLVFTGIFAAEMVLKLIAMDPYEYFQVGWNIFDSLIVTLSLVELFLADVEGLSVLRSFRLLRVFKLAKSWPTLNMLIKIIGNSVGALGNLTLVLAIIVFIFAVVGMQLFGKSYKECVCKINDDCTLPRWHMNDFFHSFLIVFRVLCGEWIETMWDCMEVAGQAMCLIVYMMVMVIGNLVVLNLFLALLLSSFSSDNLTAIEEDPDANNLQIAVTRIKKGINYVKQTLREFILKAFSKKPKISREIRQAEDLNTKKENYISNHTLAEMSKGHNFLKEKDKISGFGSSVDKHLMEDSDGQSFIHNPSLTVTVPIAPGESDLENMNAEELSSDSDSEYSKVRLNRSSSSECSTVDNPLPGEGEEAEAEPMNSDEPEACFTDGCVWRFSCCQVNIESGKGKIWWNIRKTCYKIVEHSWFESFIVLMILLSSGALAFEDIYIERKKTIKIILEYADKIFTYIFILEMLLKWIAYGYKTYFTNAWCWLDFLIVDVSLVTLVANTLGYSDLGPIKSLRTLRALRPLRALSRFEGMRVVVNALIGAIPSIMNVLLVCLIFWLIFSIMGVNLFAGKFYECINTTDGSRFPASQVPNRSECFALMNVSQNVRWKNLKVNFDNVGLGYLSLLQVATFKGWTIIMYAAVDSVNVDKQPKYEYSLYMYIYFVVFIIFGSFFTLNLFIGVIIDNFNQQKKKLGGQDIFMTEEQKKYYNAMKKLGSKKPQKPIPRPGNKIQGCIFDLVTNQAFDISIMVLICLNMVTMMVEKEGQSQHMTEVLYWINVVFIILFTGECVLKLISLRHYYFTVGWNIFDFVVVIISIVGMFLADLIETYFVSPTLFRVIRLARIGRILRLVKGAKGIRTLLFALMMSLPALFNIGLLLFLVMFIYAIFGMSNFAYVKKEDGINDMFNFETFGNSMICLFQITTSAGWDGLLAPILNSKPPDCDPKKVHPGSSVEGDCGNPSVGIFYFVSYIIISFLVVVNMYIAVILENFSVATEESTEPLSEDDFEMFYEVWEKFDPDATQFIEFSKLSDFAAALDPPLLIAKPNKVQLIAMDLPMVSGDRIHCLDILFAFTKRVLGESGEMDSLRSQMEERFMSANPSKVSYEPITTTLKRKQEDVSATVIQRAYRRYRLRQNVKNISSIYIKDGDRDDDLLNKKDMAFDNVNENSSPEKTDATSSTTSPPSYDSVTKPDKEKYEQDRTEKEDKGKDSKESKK
ASSAY_SUMMARY: hNav1.7 whole-cell patch-clamp electrophysiology (automated PatchXpress 7000A or manual) in stably expressing 293 cells
Type: cell-based
RUN_PARAMETERS: average IC50, human Nav1.7
READOUT_TYPE: IC50 (µM)

[
  {
    "SMILES_STR": "CNC(=O)c1cccc(Nc2ncnc(N3CCN(c4ccc(C#N)cc4)CC3)n2)c1",
    "TARGET_ENTITY": "human Nav1.7 (hNav1.7) (Homo sapiens, UniProt Q15858)",
    "DISPLAY_UNIT": "µM",
    "IC50": 6.03
  }
]

a. CNC(=O)c1cccc(Nc2ncnc(N3CC(Oc4ccc(Cl)c(Cl)c4)C3)n2)c1
b. CNC(=O)c1cc(F)cc(Nc2ncnc(N3CC(COc4ccc(Cl)cc4)C3)n2)c1
c. CNC(=O)c1cccc(Nc2ncnc(N3CC(COCc4ccc(Cl)cc4)C3)n2)c1
INPUT: Please order the records by their reported IC50, lowest number first. Provide the labels, sequenced as the question asks.
OUTPUT: a, b, c

---

TARGET_ENTITY: human Nav1.7 (hNav1.7) (Homo sapiens, UniProt Q15858)
Construct: expressed in transfected cells
ASSAY_SUMMARY: hNav1.7 whole-cell patch-clamp electrophysiology (automated PatchXpress 7000A or manual) in stably expressing 293 cells
Format: cell-based
RUN_PARAMETERS: average IC50, human Nav1.7
READOUT_TYPE: IC50 (µM)

[
  {
    "SMILES_STR": "CCn1c2c(c3ccccc31)CN(c1ncnc(Nc3cccc(C(=O)NC)c3)n1)CC2",
    "READOUT_TYPE": "IC50",
    "REPORTED": 2.31
  },
  {
    "SMILES_STR": "CNC(=O)c1cccc(Nc2nccc(N3CC(Oc4ccc(Cl)c(Cl)c4)C3)n2)c1",
    "READOUT_TYPE": "IC50",
    "REPORTED": 0.78
  }
]

I. CNC(=O)c1cccc(Nc2ncnc(N3CC(Oc4ccc(C(F)(F)F)cc4Cl)C3)n2)c1
II. CNC(=O)c1ccc(Cl)c(Nc2ncnc(N3CC(Oc4ccc(F)cc4)C3)n2)c1
INPUT: Just curious, which one has the larger IC50 reading, I or II ? Answer with the label corresponding to your selection.
OUTPUT: I

---

TARGET_ENTITY: human Nav1.7 (hNav1.7) (Homo sapiens)
Construct: expressed in transfected cells
ASSAY_SUMMARY: hNav1.7 whole-cell patch-clamp electrophysiology (automated PatchXpress 7000A or manual) in stably expressing 293 cells
Format: cell-based
RUN_PARAMETERS: average IC50, human Nav1.7
READOUT_TYPE: IC50 (µM)

Previously resolved entries follow.
[
  {
    "COMPOUND": "CNC(=O)c1cccc(Nc2ncnc(N3CC(Oc4ccc(C#N)cc4)C3)n2)c1",
    "READOUT_TYPE": "IC50",
    "REPORTED": 8.24
  },
  {
    "COMPOUND": "CNC(=O)c1cccc(Nc2ncnc(N3CC(Oc4cc(Cl)ccc4Cl)C3)n2)c1",
    "READOUT_TYPE": "IC50",
    "REPORTED": 0.31
  },
  {
    "COMPOUND": "CNC(=O)c1cc(Nc2ncnc(NCCCOc3cccc(C(F)(F)F)c3)n2)ccc1Cl",
    "READOUT_TYPE": "IC50",
    "REPORTED": 3.75
  },
  {
    "COMPOUND": "CNC(=O)c1cccc(Nc2ncnc(N3CCC(OCc4ccc(F)c(F)c4)CC3)n2)c1",
    "READOUT_TYPE": "IC50",
    "REPORTED": 9.42
  },
  {
    "COMPOUND": "CNC(=O)c1cccc(Nc2ncnc(N3CCN(c4cccc(F)c4)CC3)n2)c1",
    "READOUT_TYPE": "IC50",
    "REPORTED": 0.79
  }
]

P. CNC(=O)c1cc(Cl)cc(Nc2ncnc(N3CC(Oc4ccc(F)cc4)C3)n2)c1
Q. CNC(=O)c1cc(Nc2ncnc(N3CC(COc4ccc(Cl)cc4)C3)n2)ccc1Cl
R. O=C(NC1CC1)c1cccc(Nc2ncnc(N3CC(Oc4ccc(F)cc4)C3)n2)c1
S. CNC(=O)c1cccc(Nc2ncnc(N3CC(Oc4c(Cl)cccc4Cl)C3)n2)c1
INPUT: Arrange by IC50, high to low. Respond with an ordered listing of the labels, as requested.
OUTPUT: P, R, Q, S
